- measuredOn: ProfilerPro Kinase Selectivity Assay Kit kinases (Homo sapiens)
- Sequence (O95819 2-1239 limits assumed): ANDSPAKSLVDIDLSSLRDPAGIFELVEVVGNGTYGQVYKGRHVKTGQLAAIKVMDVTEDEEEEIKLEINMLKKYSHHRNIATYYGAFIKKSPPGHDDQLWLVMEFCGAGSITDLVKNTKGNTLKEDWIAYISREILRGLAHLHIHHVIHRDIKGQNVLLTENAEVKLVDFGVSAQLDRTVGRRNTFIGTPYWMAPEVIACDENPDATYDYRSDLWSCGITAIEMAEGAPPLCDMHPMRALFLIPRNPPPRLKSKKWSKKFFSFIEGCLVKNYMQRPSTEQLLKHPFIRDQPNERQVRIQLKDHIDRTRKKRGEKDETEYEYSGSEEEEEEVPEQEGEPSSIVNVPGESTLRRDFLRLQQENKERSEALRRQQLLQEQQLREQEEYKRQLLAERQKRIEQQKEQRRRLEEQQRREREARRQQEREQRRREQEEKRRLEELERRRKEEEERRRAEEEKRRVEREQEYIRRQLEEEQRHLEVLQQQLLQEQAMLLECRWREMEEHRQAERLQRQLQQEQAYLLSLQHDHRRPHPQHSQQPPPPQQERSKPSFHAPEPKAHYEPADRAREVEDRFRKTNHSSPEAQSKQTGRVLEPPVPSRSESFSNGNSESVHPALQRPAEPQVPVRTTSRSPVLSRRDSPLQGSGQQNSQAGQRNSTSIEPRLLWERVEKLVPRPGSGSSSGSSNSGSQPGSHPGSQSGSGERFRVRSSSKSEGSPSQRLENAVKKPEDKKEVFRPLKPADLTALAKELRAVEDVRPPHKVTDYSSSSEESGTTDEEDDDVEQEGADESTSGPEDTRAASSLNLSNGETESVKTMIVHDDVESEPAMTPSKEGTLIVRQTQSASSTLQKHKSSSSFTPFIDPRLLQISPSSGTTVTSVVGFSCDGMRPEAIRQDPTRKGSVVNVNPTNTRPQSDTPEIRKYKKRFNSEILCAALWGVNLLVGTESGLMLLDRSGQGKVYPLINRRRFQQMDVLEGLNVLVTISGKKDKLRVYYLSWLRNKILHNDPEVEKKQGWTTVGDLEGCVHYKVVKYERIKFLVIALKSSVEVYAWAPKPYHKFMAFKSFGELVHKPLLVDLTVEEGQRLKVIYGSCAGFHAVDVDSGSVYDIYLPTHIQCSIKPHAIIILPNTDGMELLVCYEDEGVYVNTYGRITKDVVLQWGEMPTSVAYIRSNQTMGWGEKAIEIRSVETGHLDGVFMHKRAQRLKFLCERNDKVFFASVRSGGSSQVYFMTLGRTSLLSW
- Format: biochemical
- conditions: HGK; 1 μM compound concentration
valueKind: POC (Percent of control) HGK (POC)

Example entries and their recorded answers appear below.
c1cnc(Nc2cccc3[nH]ncc23)c(-c2ncnc3[nH]cnc23)c1: 92
Cc1nc(-c2cccnc2Nc2cccc3[nH]ncc23)c2nc[nH]c2n1: 93
COc1ccc(Nc2ncccc2-c2nc(C)nc3[nH]cnc23)cn1: 104
Cc1nc(N)cc(-c2cccnc2Nc2cccc3[nH]ncc23)n1: 91

P: COc1ccc(Nc2ncc(Cc3ccc(S(C)(=O)=O)cc3)cc2-c2nc(C)nc3[nH]cnc23)cn1
Q: c1cnc(Nc2cccc3[nH]ccc23)c(-c2ncnc3[nH]cnc23)c1
Looking at recorded values for POC (Percent of control) HGK, does P or Q come in lower? Mark your selection by writing its label. Q
